# Test system: mice
# Test Summary: Forced swimming test in mice (FST)
# Assay type: in vivo
# Run Conditions: Mus musculus, 0.5 h, 30ip, 30 min after administration, vs control group, read-out: Reduction % at 30ip (duration of immobility)
Answer false (0) if inhibition in vivo at 30 mg/kg is under 10%, and true (1) if it is 10% or more.

- Smiles Repr: "c1ccc2cc([C@H]([C@H]3CCCNC3)n3ncnn3)ccc2c1"
  Assigned Label: "true (1)"
- Smiles Repr: "Cc1ccc2cc([C@H]([C@H]3CCCNC3)n3ncnn3)ccc2c1"
  Assigned Label: "true (1)"
- Smiles Repr: "Cc1nnn([C@@H](c2ccc3ccccc3c2)[C@@H]2CCCNC2)n1"
  Assigned Label: "false (0)"
- Smiles Repr: "Clc1ccc2cc([C@H]([C@H]3CCCNC3)n3ncnn3)ccc2c1"
  Assigned Label: "false (0)"

Item Fc1ccc2cc([C@@H]([C@H]3CCCNC3)n3ncnn3)ccc2c1 with inhibition in vivo at 30 mg/kg of 10% or above?
true (1)
